Target: Sterol O-acyltransferase 1 (Mus musculus)
Sequence (Q61263 whole entry): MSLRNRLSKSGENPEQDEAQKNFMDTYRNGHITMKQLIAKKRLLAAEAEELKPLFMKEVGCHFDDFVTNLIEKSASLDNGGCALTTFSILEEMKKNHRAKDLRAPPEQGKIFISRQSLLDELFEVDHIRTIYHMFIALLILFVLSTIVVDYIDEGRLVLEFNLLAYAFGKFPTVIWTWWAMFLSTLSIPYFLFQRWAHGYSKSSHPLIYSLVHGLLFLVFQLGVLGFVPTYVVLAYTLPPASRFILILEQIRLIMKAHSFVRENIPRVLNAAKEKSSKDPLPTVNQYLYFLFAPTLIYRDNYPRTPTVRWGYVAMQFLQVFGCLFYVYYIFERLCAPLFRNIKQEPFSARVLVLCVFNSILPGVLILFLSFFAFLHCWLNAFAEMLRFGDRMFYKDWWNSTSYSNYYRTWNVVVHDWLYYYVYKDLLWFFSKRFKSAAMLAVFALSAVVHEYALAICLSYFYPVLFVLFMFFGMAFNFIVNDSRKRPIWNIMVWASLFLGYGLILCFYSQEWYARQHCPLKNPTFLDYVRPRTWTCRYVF
Assay: Inhibition of ACAT1 in mouse J774 cells assessed as reduction in esterified cholesterol accumulation after 18 hrs in presence of 25-hydroxycholesterol
Type: cell-based
Parameter IC50: see the listing below.

// known answers, use as guide
- substance.smiles: "CC(C)c1cccc(C(C)C)c1NC(=O)CCCCCCCSc1nc2ccccc2s1"
  IC50: "59 nM"
- substance.smiles: "CC(C)c1cccc(C(C)C)c1NC(=O)CCCCCSc1nc2ccc(CN(C)C)cc2o1"
  IC50: "2400 nM"
- substance.smiles: "CC(C)c1cccc(C(C)C)c1NC(=O)CCCCCSc1nc2c(N(C)C)cccc2o1"
  IC50: "500 nM"

Now, please, on to the next molecule.
I am curious: what IC50 value has been reported for CC(C)c1cccc(C(C)C)c1NC(=O)CCCCCSc1nc2c(O)cccc2o1 ?
8800 nM

###

species on record: Oryctolagus cuniculus; experiment: Selectivity ratio of IC50 for inhibition of SOAT2 in New Zealand white rabbit intestinal microsomes to IC50 for inhibition of SOAT1 in arterial homogenates isolated from 1% cholesterol fed New Zealand white rabbit
// class assignment uses Ratio IC50 with these ranges: range A: < 2; range B: ≥ 2 and < 4; range C: ≥ 4

Use the examples below as a reference point.
- compound: "CC(C)c1cccc(C(C)C)c1NC(=O)CCCCCCCCCCCCCCSc1nc2ccccc2[nH]1"
  answer.label: "range A"
- compound: "CC(C)c1cccc(C(C)C)c1NC(=O)CCCCSc1nc2ccccc2s1"
  answer.label: "range B"
- compound: "CC(C)c1cccc(C(C)C)c1NC(=O)CCCCSc1nc2ccccc2o1"
  answer.label: "range B"
- compound: "CC(C)c1cccc(C(C)C)c1NC(=O)CCCCCSc1nc2ccccc2o1"
  answer.label: "range C"
- compound: "CC(C)c1cccc(C(C)C)c1NC(=O)CCCCCCCCSc1nc2ccccc2s1"
  answer.label: "range C"

Category lookup for the compound CC(C)c1cccc(C(C)C)c1NC(=O)CSc1nc2ccccc2[nH]1
range B

Band of CC(C)c1cccc(C(C)C)c1NC(=O)CCCCCSc1nc2cc(C(F)(F)F)ccc2o1 ?
range C

The entry to classify is CC(C)c1cc(C(C)C)c(CC(=O)NS(=O)(=O)Oc2c(C(C)C)cccc2C(C)C)c(C(C)C)c1 [AVASIMIBE] ; which class holds it?
range A

Note: place this compound into its band. Item: CC(C)c1cccc(C(C)C)c1NC(=O)CSc1nc2ccccc2s1
range A

Categorize the following entry: CC(C)c1cccc(C(C)C)c1NC(=O)CCCCCSc1nc2ccc(C(=O)O)cc2o1
range B

###

biological target: Sterol O-acyltransferase 1 (Mus musculus, UniProt Q61263); assay: Inhibition of ACAT1 in mouse J774 cells assessed as reduction in esterified cholesterol accumulation after 18 hrs in presence of 25-hydroxycholesterol; type: cell-based
assay.readout: IC50 (nM)
Hi! Could you send only the number? It should be in nM, unit omitted.

Examples with their reported IC50 follow.
- substance.smiles: "CC(C)c1cccc(C(C)C)c1NC(=O)CCSc1nc2ccccc2s1"
  numeric.value: 280
- substance.smiles: "CC(C)c1cccc(C(C)C)c1NC(=O)CCCCCSc1nc2ccccc2o1"
  numeric.value: 1900
- substance.smiles: "CC(C)c1cccc(C(C)C)c1NC(=O)CCCCCSc1nc2cc(CN(C)C)ccc2o1"
  numeric.value: 1800
- substance.smiles: "CC(C)c1cccc(C(C)C)c1NC(=O)CCCCCCCCCCCCCCSc1nc2ccccc2o1"
  numeric.value: 410
- substance.smiles: "CC(C)c1cccc(C(C)C)c1NC(=O)CCCCCSc1nc2cccc(C(=O)O)c2o1"
  numeric.value: 11000
- substance.smiles: "CC(C)c1cccc(C(C)C)c1NC(=O)CCCCCCSc1nc2ccccc2s1"
  numeric.value: 410

Returns the measured IC50 for the input molecule. Input: COC(=O)c1cccc2nc(SCCCCCC(=O)Nc3c(C(C)C)cccc3C(C)C)oc12
100

Quick one: IC50 of CC(C)c1cccc(C(C)C)c1NC(=O)CCCCCCCCCCCCCCSc1nc2ccccc2[nH]1 ?
1700

Given CC(C)c1cccc(C(C)C)c1NC(=O)CCCCCCCSc1nc2ccccc2o1 , state its recorded IC50.
40

Any idea what its IC50 is? The molecule is CC(C)c1cccc(C(C)C)c1NC(=O)CCCCCCCCCSc1nc2ccccc2s1
570

What value of IC50 has been recorded for this entry: CC(C)c1cccc(C(C)C)c1NC(=O)CCCCCSc1nc2cccnc2o1
3000

###

assay: AUC (0 to 8 hrs) in fasted Beagle dog at 30 mg/kg, po by LC-MS/MS analysis; type: ADME, organism-based, Canis lupus familiaris; design: dose 30 mg/kg, time < 8 hr, route oral; conditions: in vivo
assay.readout: AUC(0-t) at 8 h (ng·h/mL)
Numbers only; they are read as ng·h/mL.

So what's the measured AUC(0-t) at 8 h for this one? CC(C)c1cccc(C(C)C)c1NC(=O)CCCCCCCCSc1nc2ccccc2o1
14

###

assay: Cmax in non-fasted Beagle dog at 30 mg/kg, po by LC-MS/MS analysis; format: ADME, organism-based, Canis lupus familiaris; design: dose 30 mg/kg, route oral; conditions: in vivo
assay.readout: Cmax (ng/mL)
Express it in ng/mL; write the number only.

Need Cmax, item CC(C)c1cccc(C(C)C)c1NC(=O)CCCCCCCCSc1nc2ccccc2o1
582

###

assay: Toxicity in rat measured over 2 weeks; type: organism-based; conditions: in vivo
assay.readout: NOAEL at 336 h (mg/kg)
Form entry: value (mg/kg) — number only.

Could you share which NOAEL at 336 h value was measured for CC(C)c1cccc(C(C)C)c1NC(=O)CCCCCCCCSc1nc2ccccc2o1 ?
30

###

experiment: AUC (0 to 8 hrs) in non-fasted Beagle dog at 30 mg/kg, po by LC-MS/MS analysis; assay type: ADME, organism-based, Canis lupus familiaris; design: time < 8 hr, dose 30 mg/kg, route oral; conditions: in vivo
assay.readout: AUC(0-t) at 8 h (ng·h/mL)
// return numeric value only (unit: ng·h/mL, not printed)

Query (compound): CC(C)c1cccc(C(C)C)c1NC(=O)CCCCCCCCSc1nc2ccccc2o1 ; field requested: AUC(0-t) at 8 h
2960

###

target: Sterol O-acyltransferase 1 (Mus musculus, UniProt Q61263); assay: Inhibition of ACAT1 in mouse J774 cells assessed as reduction in esterified cholesterol accumulation after 18 hrs in presence of 25-hydroxycholesterol; format: cell-based
assay.readout: IC50 (µM)
Please give a number only; it is taken to be in µM.

// lookup IC50 for CC(C)c1cccc(C(C)C)c1NC(=O)CCCCCSc1nc2c(CO)cccc2o1
11

Fill in: IC50 of CC(C)c1cccc(C(C)C)c1NC(=O)CCCCSc1nc2ccccc2o1 is ___
3.6

Request the reported IC50 associated with CC(C)c1cccc(C(C)C)c1NC(=O)CCCCCCCCSc1nc2ccccc2s1
0.043

Can you share its IC50? I mean this compound: CC(C)c1cccc(C(C)C)c1NC(=O)CCCCSc1nc2ccccc2s1
57

Fill in: IC50 of CC(C)c1cccc(C(C)C)c1NC(=O)CCCCCSc1nc2cc(C(F)(F)F)ccc2o1 is ___
0.1

Entry COC(=O)c1cccc2oc(SCCCCCC(=O)Nc3c(C(C)C)cccc3C(C)C)nc12 has what IC50?
0.9

Could you tell me which IC50 is on file for CC(C)c1cccc(C(C)C)c1NC(=O)CCCCCSc1nc2cc(C(=O)O)ccc2o1 ?
11

Give its IC50 value. Item: CC(C)c1cccc(C(C)C)c1NC(=O)CCCCCCSc1nc2ccccc2[nH]1
0.048

If you can, please state the reported IC50 value of Cc1ccc2nc(SCCCCCC(=O)Nc3c(C(C)C)cccc3C(C)C)oc2c1 .
0.4

# IC50 lookup, item CC(C)c1cccc(C(C)C)c1NC(=O)CCCCCCCCCCCCCCSc1nc2ccccc2s1
1.8
